system: Trypanosoma cruzi; assay: Trypanosomicidal activity against axenic epimastigote stage of Trypanosoma cruzi Tulahuen 2 assessed as growth inhibition; assay type: functional, organism-based
measure_name: IC50 (µM)
Just the number please, in µM, no unit attached.

Check out these entries, answers already filled in.
O=C(N/N=C/c1c(-c2ccccc2)no[n+]1[O-])c1ccc2c(c1)OCO2 | 50
Cc1c(C(=O)N/N=C/c2ccc([N+](=O)[O-])o2)no[n+]1[O-] | 50.1

Turning now to a further record.
Kindly note: Trypanosoma cruzi, Cc1c(C(=O)N/N=C/c2ccc([N+](=O)[O-])s2)no[n+]1[O-] , IC50 value reported: 50

###

tested on: Trypanosoma cruzi; assay: Trypanosomicidal activity against axenic epimastigote stage of Trypanosoma cruzi Tulahuen 2 assessed as growth inhibition; type: functional, organism-based
measure_name: IC50

O=C(N/N=C/c1ccc2nonc2c1)c1ccncc1 | > 150 µM
Cc1c(C(=O)N/N=C/c2ccc([N+](=O)[O-])cc2)no[n+]1[O-] | > 150 µM
Cc1[nH]cnc1C(=O)N/N=C/c1ccc2no[n+]([O-])c2c1 | 172 µM

Record Cc1nc2ccccn2c1C(=O)NN , field IC50: > 150 µM

Record O=C(N/N=C/c1ccc2no[n+]([O-])c2c1)c1cccnc1 , field IC50: 35.5 µM

Record Cc1c(C(=O)N/N=C/c2ccccn2)no[n+]1[O-] , field IC50: > 150 µM

Record Cc1c(C(=O)N/N=C/c2c(-c3ccccc3)no[n+]2[O-])no[n+]1[O-] , field IC50: 25.1 µM

Record Cc1nc2ccccn2c1C(=O)N/N=C/c1c(-c2ccccc2)no[n+]1[O-] , field IC50: 5 µM

###

system: Trypanosoma cruzi; experiment: Trypanosomicidal activity against axenic epimastigote stage of Trypanosoma cruzi Tulahuen 2 assessed as growth inhibition; assay type: functional, organism-based
A collection of molecules and their measured IC50
Just the number please, in µM, no unit attached.

Check out these entries, answers already filled in.
O=C(N/N=C/c1c(-c2ccccc2)no[n+]1[O-])c1ccncc1 | 11
Cc1c(C(=O)N/N=C/c2ccccc2O)no[n+]1[O-] | 39.8
Cc1c(C(=O)N/N=C/c2ccccc2)no[n+]1[O-] | 151

Turning now to a further record.
Record O=C(N/N=C/c1ccc2no[n+]([O-])c2c1)c1cnn(-c2ccccc2)c1 , field IC50: 29.5

###

assay: Selectivity index, ratio of IC50 for mouse J774.1 cells to IC50 for amastigote stage of Trypanosoma cruzi Tulahuen C4; type: toxicity; conditions: read-out: Ratio IC50
measure_name: selectivity ratio

Check out these entries, answers already filled in.
O=C(N/N=C/c1ccc2no[n+]([O-])c2c1)c1ccncc1 | 24
O=C(N/N=C/c1c(-c2ccccc2)no[n+]1[O-])c1cccnc1 | < 6

Record Cc1c(C(=O)N/N=C/c2ccc([N+](=O)[O-])o2)no[n+]1[O-] , field selectivity ratio: < 2

Record Cc1c(C(=O)N/N=C/c2ccccc2O)no[n+]1[O-] , field selectivity ratio: < 6

Record O=C(N/N=C/c1c(-c2ccccc2)no[n+]1[O-])c1ccc2c(c1)OCO2 , field selectivity ratio: > 5

###

assay: Selectivity index, ratio of IC50 for mouse J774.1 cells to IC50 for axenic amastigote stage of Leishmania amazonensis MHOM/BR/76/LTB-012; format: toxicity; conditions: read-out: Ratio IC50
measure_name: selectivity ratio

Check out these entries, answers already filled in.
COc1ccc(/C=N/NC(=O)c2no[n+]([O-])c2C)cc1O | > 48
Cc1nc2ccccn2c1C(=O)N/N=C/c1no[n+]([O-])c1C | > 32
Cc1c(C(=O)N/N=C/c2ccc([N+](=O)[O-])cc2)no[n+]1[O-] | > 38
Cc1c(C(=O)N/N=C/c2cccc(O)c2)no[n+]1[O-] | > 89
Cc1c(/C=N/NC(=O)c2ccc3c(c2)OCO3)no[n+]1[O-] | 40
O=C(N/N=C/c1ccc2no[n+]([O-])c2c1)c1ccc2c(c1)OCO2 | 134

Record O=C(N/N=C/c1ccc2no[n+]([O-])c2c1)c1cnn(-c2ccccc2)c1 , field selectivity ratio: 27

Record COc1cc(/C=N/NC(=O)c2no[n+]([O-])c2C)ccc1O , field selectivity ratio: > 235

Record Cc1c(/C=N/NC(=O)c2ccncc2)no[n+]1[O-] , field selectivity ratio: > 16

Record Cc1nc2ccccn2c1C(=O)NN , field selectivity ratio: > 13

Record C[C@@H]1[C@H](O)[C@@H](C)/C=C/C=C/C=C/C=C/C=C/C=C/C=C/[C@H](O[C@@H]2O[C@H](C)[C@@H](O)[C@H](N)[C@@H]2O)C[C@@H]2O[C@](O)(C[C@@H](O)C[C@@H](O)[C@H](O)CC[C@@H](O)C[C@@H](O)CC(=O)O[C@H]1C)C[C@H](O)[C@H]2C(=O)O [AMPHOTERICIN B] , field selectivity ratio: 4.7

###

A collection of compounds and their measured selectivity ratio
assay: Selectivity index, ratio of IC50 for mouse J774.1 cells to IC50 for amastigote stage of Trypanosoma cruzi Tulahuen C4; type: toxicity; conditions: read-out: Ratio IC50

O=C(N/N=C/c1ccc2no[n+]([O-])c2c1)c1cccnc1 | < 0.9
CC1CS(=O)(=O)CCN1/N=C/c1ccc([N+](=O)[O-])o1 (stereo not drawn) | 27
O=C(N/N=C/c1ccc2nonc2c1)c1cccnc1 | < 5.5
Cc1nc2ccccn2c1C(=O)N/N=C/c1ccc2no[n+]([O-])c2c1 | < 4
Cc1[nH]cnc1C(=O)N/N=C/c1ccc2no[n+]([O-])c2c1 | < 1

Record O=C(N/N=C/c1ccc2no[n+]([O-])c2c1)c1ccc2c(c1)OCO2 , field selectivity ratio: < 5

Record Cc1nc2ccccn2c1C(=O)N/N=C/c1c(-c2ccccc2)no[n+]1[O-] , field selectivity ratio: 62

Record Cc1c(C(=O)N/N=C/c2ccc(N(C)C)cc2)no[n+]1[O-] , field selectivity ratio: < 3

###

A collection of compounds and their measured pIC50
tested on: Trypanosoma cruzi; experiment: Trypanosomicidal activity against axenic epimastigote stage of Trypanosoma cruzi Tulahuen 2 assessed as growth inhibition; format: functional, organism-based
pIC50: −log10 of the molar value.

Record Cc1c(/C=N/NC(=O)c2cnn(-c3ccccc3)c2)no[n+]1[O-] , field pIC50: < 3.82

Record Cc1c(C(=O)N/N=C/c2ccc3no[n+]([O-])c3c2)no[n+]1[O-] , field pIC50: < 3.82

Record NNC(=O)c1ccc2c(c1)OCO2 , field pIC50: < 3.82

###

test system: Trypanosoma cruzi; experiment: Trypanosomicidal activity against axenic epimastigote stage of Trypanosoma cruzi Tulahuen 2 assessed as growth inhibition; format: functional, organism-based
pIC50: −log10 of the molar value.
A collection of molecules and their measured pIC50

Check out these entries, answers already filled in.
Cc1c(C(=O)N/N=C/c2ccc(Br)cc2)no[n+]1[O-] | < 3.82
Cc1c(/C=N/NC(=O)c2no[n+]([O-])c2C)no[n+]1[O-] | 4.09
Cc1[nH]cnc1C(=O)N/N=C/c1c(-c2ccccc2)no[n+]1[O-] | < 3.82

Record Cc1nc2ccccn2c1C(=O)N/N=C/c1no[n+]([O-])c1C , field pIC50: < 3.82

Record Cc1c(/C=N/NC(=O)c2ccncc2)no[n+]1[O-] , field pIC50: < 3.52

Record Cc1c(C(=O)N/N=C/c2ccc(N(C)C)cc2)no[n+]1[O-] , field pIC50: < 3.82

Record COC(=O)c1no[n+]([O-])c1C , field pIC50: < 4.30

Record NNC(=O)c1ccncc1 , field pIC50: < 3.82

Record Cc1c(C(=O)N/N=C/c2ccco2)no[n+]1[O-] , field pIC50: < 3.82

Record CC(=O)Nc1ccc(/C=N/NC(=O)c2no[n+]([O-])c2C)cc1 , field pIC50: < 3.82

Record O=C(N/N=C/c1c(-c2ccccc2)no[n+]1[O-])c1cccnc1 , field pIC50: 4.23

Record Cc1c(C(=O)N/N=C/c2ccc3c(c2)OCO3)no[n+]1[O-] , field pIC50: < 3.82

###

test system: Trypanosoma cruzi; experiment: Trypanosomicidal activity against axenic epimastigote stage of Trypanosoma cruzi Tulahuen 2 assessed as growth inhibition; assay type: functional, organism-based
measure_name: IC50

Check out these entries, answers already filled in.
Cc1c(/C=N/NC(=O)c2cccnc2)no[n+]1[O-] | > 150 µM
O=C(N/N=C/c1ccc2no[n+]([O-])c2c1)c1ccc2c(c1)OCO2 | 50 µM

Turning now to a further record.
Record Cc1c(/C=N/NC(=O)c2ccc3c(c2)OCO3)no[n+]1[O-] , field IC50: > 150 µM
